System: Athalia rosae ruficornis
Procedure Text: Pharmacophagous feeding stimulant activity in Athalia rosae ruficornis assessed as insect fed on paper for more than 10 seconds at 10^-6 g/filter paper
Type: functional
Measurement Name: Activity (%)
Field: numeric (%). Do not append units.

Asked: For the molecule CCC(C)C(=O)O[C@H]1[C@H](O)C[C@@H]2[C@@](C)([C@@H]3C[C@H]4C=CO[C@H]4O3)C(C)=C[C@H](OC(C)=O)[C@@]2(COC(C)=O)[C@@]12CO2 (stereo partly drawn) , give its measured Activity value.
Given back: 40

Asked: For the molecule CC(=O)OC[C@@]12[C@@H](OC(C)=O)C[C@@H](C)[C@](C)([C@@H]3C[C@H]4C=CO[C@H]4O3)[C@H]1CC[C@H](OC(C)=O)[C@]21CO1 [3-EPICARYOPTIN] , give its measured Activity value.
Given back: 80

---

Entries and their Activity values follow.
Tested on: Athalia rosae ruficornis
Procedure Text: Pharmacophagous feeding stimulant activity in Athalia rosae ruficornis assessed as insect fed on paper for more than 10 seconds at 10^-6 g/filter paper
Assay type: functional
Field: numeric (%). Do not append units.

Completed entries (count: 2):
{"Compound": "CC(=O)OC[C@@]12[C@@H](OC(C)=O)C=C(C)[C@](C)([C@@H]3C[C@H]4C=CO[C@H]4O3)[C@H]1C[C@@H](O)[C@H](OC(=O)[C@](C)(OC(C)=O)[C@H](C)OC(C)=O)[C@]21CO1 [CLERODENDRIN I]", "Units Symbol": "%", "Activity": 10}
{"Compound": "CC[C@H](C)C(=O)O[C@H]1[C@H](O)C[C@@H]2[C@@](C)([C@@H]3C[C@H]4C=CO[C@H]4O3)[C@H](C)C[C@H](OC(C)=O)[C@@]2(COC(C)=O)[C@@]12CO2 [CLERODENDRIN D]", "Units Symbol": "%", "Activity": 80}

Proceeding to the next compound to report its Activity.
Asked: For the compound CC(=O)OC[C@@]12[C@@H](OC(C)=O)C[C@@H](C)[C@](C)([C@@H]3C[C@H]4C=CO[C@H]4O3)[C@H]1C[C@@H](O)[C@H](O)[C@]21CO1 [ATHALIADIOL] , give its measured Activity value.
Given back: 80

---

Tested on: Athalia rosae ruficornis
Procedure Text: Pharmacophagous feeding stimulant activity in Athalia rosae ruficornis assessed as insect fed on paper for more than 10 seconds at 10^-6 g/filter paper
Assay type: functional
Entries and their Activity values follow.
Field: numeric (%). Do not append units.

Completed entries (count: 5):
{"Molecule": "CC(=O)OC[C@@]12[C@@H](OC(C)=O)C[C@@H](C)[C@](C)([C@@H]3C[C@H]4C=CO[C@H]4O3)[C@H]1CCC[C@]21CO1 [CLERODIN]", "Units Symbol": "%", "Activity": 80}
{"Molecule": "CC[C@@](C)(OC(C)=O)C(=O)O[C@H]1[C@H](O)C[C@@H]2[C@@](C)([C@@H]3C[C@H]4C=CO[C@H]4O3)C(C)=C[C@H](OC(C)=O)[C@@]2(COC(C)=O)[C@@]12CO2 [CLERODENDRIN A]", "Units Symbol": "%", "Activity": 40}
{"Molecule": "CC(=O)OC[C@@]12[C@@H](OC(C)=O)C[C@@H](C)[C@](C)([C@@H]3C[C@H]4C=CO[C@H]4O3)[C@H]1C[C@@H](O)[C@H](OC(=O)[C@](C)(OC(C)=O)[C@@H](C)OC(C)=O)[C@]21CO1 [CLERODENDRIN H]", "Units Symbol": "%", "Activity": 80}
{"Molecule": "CC(=O)OC[C@@]12[C@@H](OC(C)=O)C[C@@H](C)[C@](C)([C@@H]3C[C@H]4C=CO[C@H]4O3)[C@H]1C[C@@H](O)[C@H](OC(=O)C(C)C)[C@]21CO1 [AJUGACHIN A]", "Units Symbol": "%", "Activity": 80}
{"Molecule": "CC(=O)OC[C@@]12[C@@H](OC(C)=O)C=C(C)[C@](C)([C@@H]3C[C@H]4C=CO[C@H]4O3)[C@H]1C[C@@H](O)[C@H](OC(=O)[C@](C)(OC(C)=O)[C@@H](C)OC(C)=O)[C@]21CO1 [CLERODENDRIN F]", "Units Symbol": "%", "Activity": 10}

Proceeding to the next molecule to report its Activity.
Asked: For the molecule CC[C@@](C)(OC(C)=O)C(=O)O[C@H]1[C@H](O)C[C@@H]2[C@@](C)([C@@H]3C[C@H]4C=CO[C@H]4O3)[C@H](C)C[C@H](OC(C)=O)[C@@]2(COC(C)=O)[C@@]12CO2 [CLERODENDRIN B] , give its measured Activity value.
Given back: 80

The reported numbers originate from ChEMBL document CHEMBL3044742.
